Values compiled from patent US20240385198A1.

biological target: His-labeled STING (Homo sapiens, UniProt Q86WV6, H232R); assay: Microscale thermophoresis (MST) analysis of STING modulators with 50 nM 2,3-cGAMP (Example 2); type: binding; conditions: compounds incubated with 50 nM 2,3-cGAMP, read-out: Dissociation Constant
Sequence (Q86WV6 138-379 H232R): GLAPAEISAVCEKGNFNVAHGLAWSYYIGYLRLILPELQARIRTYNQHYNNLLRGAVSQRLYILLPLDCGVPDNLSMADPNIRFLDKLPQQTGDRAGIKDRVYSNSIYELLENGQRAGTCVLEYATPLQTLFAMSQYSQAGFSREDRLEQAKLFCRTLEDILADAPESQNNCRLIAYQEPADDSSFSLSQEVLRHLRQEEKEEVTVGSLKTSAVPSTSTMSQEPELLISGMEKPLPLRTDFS
Metric name: Kd

Query: Kd; subject: "CNC(=O)c1cccnc1Nc1cccc(Cl)c1C"
0.0001 to 10 µM

And what about the compound "Cc1c(Cl)cccc1Nc1ncccc1C(=O)OCCCOC(=O)c1cccnc1Nc1cccc(Cl)c1C" ?
0.0001 to 10 µM

And what about the compound "COC(=O)c1cccnc1Nc1cccc(C(F)(F)F)c1C" ?
1e-06 to 0.0001 µM

And what about the compound "CCCCC(=O)c1cccnc1Nc1cccc(Cl)c1C" ?
0.0001 to 10 µM

And what about the compound "C#CCOC(=O)c1cccnc1Nc1cccc(Cl)c1C" ?
10 to 100 µM

* * *

target: His-labeled STING (Homo sapiens, UniProt Q86WV6, H232R); assay: Microscale thermophoresis (MST) analysis of STING modulators with 50 nM 2,3-cGAMP (Example 2); format: binding; details: compounds incubated with 50 nM 2,3-cGAMP, read-out: Dissociation Constant
Metric name: Kd

Query: Kd; subject: "Cc1c(Br)cccc1Nc1ncccc1C(=O)O"
10000 to 100000 nM

And what about the molecule "COC(=O)c1cccnc1Nc1cccc(F)c1C" ?
0.001 to 0.1 nM

And what about the molecule "CCNC(=O)c1cccnc1Nc1cccc(Cl)c1C" ?
0.1 to 10000 nM

And what about the molecule "COC(=O)c1cccnc1Nc1cccc(Br)c1C" ?
0.001 to 0.1 nM

And what about the molecule "C=CCNC(=O)c1cccnc1Nc1cccc(Cl)c1C" ?
0.1 to 10000 nM

And what about the molecule "Cc1c(Cl)cccc1Nc1ncccc1C(=O)OCCCCOC(=O)c1cccnc1Nc1cccc(Cl)c1C" ?
0.001 to 0.1 nM

And what about the molecule "CCCNC(=O)c1cccnc1Nc1cccc(Cl)c1C" ?
0.1 to 10000 nM

And what about the molecule Cc1c(Cl)cccc1Nc1ncccc1COCC(O)CO (stereo not shown) ?
0.001 to 0.1 nM

And what about the molecule Cc1c(Nc2ncccc2C(=O)OCC(O)CO)cccc1C(F)(F)F (stereo not shown) ?
< 0.001 nM

And what about the molecule "Cc1c(Cl)cccc1Nc1ncccc1CO" ?
< 0.001 nM

* * *

I'd appreciate it if you could supply pKd values for the items below.
target: His-labeled STING (Homo sapiens, UniProt Q86WV6, H232R); experiment: Microscale thermophoresis (MST) analysis of STING modulators with 50 nM 2,3-cGAMP (Example 2); type: binding; details: compounds incubated with 50 nM 2,3-cGAMP, read-out: Dissociation Constant
pKd: −log10 of the molar value.

Give recorded pKd with His-labeled STING (Homo sapiens, UniProt Q86WV6, H232R) for the following compound: "Cc1c(Cl)cccc1Nc1ncccc1C(=O)OCCCCCOC(=O)c1cccnc1Nc1cccc(Cl)c1C"
5.00 to 10.00

And what about the compound Cc1c(Br)cccc1Nc1ncccc1C(=O)OCC(O)CO (stereo not shown) ?
> 12.00

And what about the compound Cc1c(Cl)cccc1Nc1ncccc1C(=O)OCC(O)CO (stereo not shown) ?
> 12.00

And what about the compound "Cc1c(Nc2ncccc2C(=O)O)cccc1C(F)(F)F" ?
5.00 to 10.00
